- ASSAY_NAME: Quantitative highthroughput screen to assess conditional lethalithy of NOMO1 cells grown in RPMI1640 with untreated serum (RPMI+s) (AID 1963876); also: nearly all actives have a fitted effect of over 35% in size
- EXPERIMENTAL_CONTEXT: NOMO1 AML cells in RPMI+serum, CellTiter-Glo viability, 48 h; series mostly up to 45.8 µM
Inconclusive results are not listed. The source made the active and inactive calls. Calls follow the shape of the dose curve; as a rule, active = well fitted cell-killing curve with a large enough effect; inconclusive = small, poorly fitted or top-dose-only effect; inactive = flat fitted curve, though single readings scatter.
Pick one: Yes = active, No = inactive

For orientation, consider the following solved cases.
* CC(C)C[C@H](NC(=O)CNC(=O)c1cc(Cl)ccc1Cl)B1OC(=O)CC(CC(=O)O)(C(=O)O)O1 (stereo not given in full) | Yes
* CCOc1cc(CC(=O)N[C@@H](CC(C)C)c2ccccc2N2CCCCC2)ccc1C(=O)O | Yes
* CC(C)[C@H](O)C(=O)N[C@@H](C)C(=O)N[C@@H]1C(=O)N(C)CCc2ccccc21 | No

Prompt: Could you kindly confirm the outcome this assay logged for O=C(C=Cc1ccc(/C=C/C(=O)Nc2ccc(C3=NCCN3)cc2)cc1)Nc1ccc(C2=NCCN2)cc1 ?
Completion: No

Prompt: Could you kindly confirm the outcome this assay logged for COc1ccc2c(c1)c(CC(=O)O)c(C)n2C(=O)c1ccc(Cl)cc1 ?
Completion: No

Prompt: Could you kindly confirm the outcome this assay logged for CN[C@H]1[C@@H](O)[C@@H]2O[C@@H]3O[C@H](C)CC(=O)[C@]3(O)O[C@@H]2[C@@H](NC)[C@H]1O ?
Completion: No
